Cited source for all entries: patent US20230180804A1

Attribute: p-Cresol Odor Intensity
assay: Sensory evaluation of p-cresol odor masking in p-cresol-containing citrus-flavored beverage; conditions: 0.01 ppt added; beverage with 50 ppb p-cresol; average score of 7 panelists, scale 0-4
Report the figure in points without appending any unit label.

# p-Cresol Odor Intensity lookup, item O=C1CCCCCCC/C=C\CCCCCCC1 [Civetone, civetone]
2.7

Same thing, different compound: O=C1CCCCCCC/C=C\CCCCCCO1 [Isoambrettolide, isoambrettolide]
3.7

Next compound up: C[C@@H]1CCCCCCCCCCCCC(=O)C1 [Muscone, muscone]
2.7

----------
p-Cresol Odor Intensity values by entry
test: Sensory evaluation of p-cresol odor masking in p-cresol-containing citrus-flavored beverage; conditions: 1 ppm added; beverage with 50 ppb p-cresol; average score of 7 panelists, scale 0-4
Be sure to follow the number with its unit.

Any idea what p-Cresol Odor Intensity was measured for C=C1CC[C@H]2O[C@]2(C)CC[C@@H]2[C@@H]1CC2(C)C [β-caryophyllene Oxide, β-caryophyllene oxide] ?
1.0 points

Here is the next molecule: CC1(C)CCC[C@]2(C)[C@H]3CC(=O)O[C@]3(C)CC[C@@H]12 [Sclareolide, sclareolide]
1.0 points

Same thing, different molecule: CCc1occc(=O)c1O
1.4 points

Also CCCCCC1CC=CC(=O)O1 (centres unmarked) , if possible.
1.3 points

For the next question, use this molecule.
What does the data say about its p-Cresol Odor Intensity? Entry: O=C/C=C/c1ccccc1
1.7 points

----------
assay: Sensory evaluation of p-cresol odor masking in p-cresol-containing citrus-flavored beverage; conditions: 1 ppt added; beverage with 50 ppb p-cresol; average score of 7 panelists, scale 0-4
experimental-endpoint: p-Cresol Odor Intensity

Reported p-Cresol Odor Intensity for O=C1CCCCCCC/C=C\CCCCCCO1 [Isoambrettolide, isoambrettolide] : what is it?
2.4 points

Entry to check: O=C1CCCCCCCCCCCCCCO1 [Pentalide, pentalide]
2.6 points

Same again, this time with CCCCCC1CC=CC(=O)O1 (stereo not shown)
3.9 points

Also O=C1CCCCCC=CCCCCCCCCO1 , if possible.
2.6 points

Field entry: C[C@@H]1CCCCCCCCCCCCC(=O)C1
2.1 points

New cases:
Suppose we examine the compound O=C1CCCCC=CCCCCCCCCCO1 ; what p-Cresol Odor Intensity value has been reported?
2.4 points

// same read-out, input: O=C1CCCCCCC/C=C\CCCCCCC1
1.9 points

----------
assay: Sensory evaluation of p-cresol odor masking in p-cresol-containing citrus-flavored confectionery (tablet); details: 400 ppt added; tablet with 200 ppb p-cresol; average score of 6 panelists, scale 0-4
We begin with a simple list: items and their reported p-Cresol Odor Intensity.
A number alone suffices; assume points.

// returns reported p-Cresol Odor Intensity for input O=C1CCCCCCCCCCCCCCO1 [Pentalide, pentalide]
2.7

New cases:
Which p-Cresol Odor Intensity is listed for O=C1CCCCCC=CCCCCCCCCO1 ?
3.2

Can you check O=C1CCCCCCC/C=C\CCCCCCO1 [Isoambrettolide, isoambrettolide] next?
2.7

Follow-up item: O=C1CCCCC=CCCCCCCCCCO1
2.7

----------
assay: Sensory evaluation of p-cresol odor masking in p-cresol-containing citrus-flavored confectionery (tablet); settings: 4 ppb added; tablet with 200 ppb p-cresol; average score of 6 panelists, scale 0-4
experimental-endpoint: p-Cresol Odor Intensity
Give your result as the value with the unit written after it.

What does the record list as p-Cresol Odor Intensity for O=C1CCCCCCC/C=C\CCCCCCO1 [Isoambrettolide, isoambrettolide] ?
2.5 points

Do the same for O=C1CCCCC=CCCCCCCCCCO1 please
2.5 points

And for O=C1CCCCCCCCCCCCCCO1 [Pentalide, pentalide] ?
2.3 points

Continuing:
So what's the measured p-Cresol Odor Intensity for this one? O=C1CCCCCC=CCCCCCCCCO1
2.5 points

----------
test: Sensory evaluation of p-cresol odor masking in p-cresol-containing citrus-flavored beverage; settings: 0.1 ppt added; beverage with 50 ppb p-cresol; average score of 7 panelists, scale 0-4
experimental-endpoint: p-Cresol Odor Intensity (points)
I only need the number, in points, no unit after it.

Recorded results for 3 compounds are shown here.
Would you mind telling me what p-Cresol Odor Intensity value was observed for C[C@@H]1CCCCCCCCCCCCC(=O)C1 ?
2.4

# iterate: O=C1CCCCCC=CCCCCCCCCO1
2.9

Likewise for O=C1CCCCCCCCCCCCCCO1 [Pentalide, pentalide] ?
2.9

Next:
Find the recorded p-Cresol Odor Intensity belonging to O=C1CCCCCCC/C=C\CCCCCCC1 and report it.
2.3

Please do the same for O=C1CCCCC=CCCCCCCCCCO1 as well.
2.7

Moving on to the next compound: O=C1CCCCCCC/C=C\CCCCCCO1 [Isoambrettolide, isoambrettolide]
2.7

----------
experiment: Sensory evaluation of p-cresol odor masking in p-cresol-containing citrus-flavored beverage; conditions: 0.01 ppt added; beverage with 50 ppb p-cresol; average score of 7 panelists, scale 0-4
experimental-endpoint: p-Cresol Odor Intensity (points)
Your answer is read as points, so omit the unit and give the number.

Data request, read-out p-Cresol Odor Intensity, for O=C1CCCCCC=CCCCCCCCCO1 [1-Oxacycloheptadecan-8-En-2-One, 1-oxacycloheptadecan-8-en-2-one]
3.6

Now the same for O=C1CCCCCCCCCCCCCCO1 [Pentalide, pentalide]
3.6

Continue with O=C1CCCCC=CCCCCCCCCCO1 [1-Oxacycloheptadecan-7-En-2-One, 1-oxacycloheptadecan-7-en-2-one]
3.7
